# testedSystem: furin, P09958;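 also: purified furin at 1:10 enzyme:substrate in 50 mM HEPES pH 7.5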
# Sequence (P09958 whole entry): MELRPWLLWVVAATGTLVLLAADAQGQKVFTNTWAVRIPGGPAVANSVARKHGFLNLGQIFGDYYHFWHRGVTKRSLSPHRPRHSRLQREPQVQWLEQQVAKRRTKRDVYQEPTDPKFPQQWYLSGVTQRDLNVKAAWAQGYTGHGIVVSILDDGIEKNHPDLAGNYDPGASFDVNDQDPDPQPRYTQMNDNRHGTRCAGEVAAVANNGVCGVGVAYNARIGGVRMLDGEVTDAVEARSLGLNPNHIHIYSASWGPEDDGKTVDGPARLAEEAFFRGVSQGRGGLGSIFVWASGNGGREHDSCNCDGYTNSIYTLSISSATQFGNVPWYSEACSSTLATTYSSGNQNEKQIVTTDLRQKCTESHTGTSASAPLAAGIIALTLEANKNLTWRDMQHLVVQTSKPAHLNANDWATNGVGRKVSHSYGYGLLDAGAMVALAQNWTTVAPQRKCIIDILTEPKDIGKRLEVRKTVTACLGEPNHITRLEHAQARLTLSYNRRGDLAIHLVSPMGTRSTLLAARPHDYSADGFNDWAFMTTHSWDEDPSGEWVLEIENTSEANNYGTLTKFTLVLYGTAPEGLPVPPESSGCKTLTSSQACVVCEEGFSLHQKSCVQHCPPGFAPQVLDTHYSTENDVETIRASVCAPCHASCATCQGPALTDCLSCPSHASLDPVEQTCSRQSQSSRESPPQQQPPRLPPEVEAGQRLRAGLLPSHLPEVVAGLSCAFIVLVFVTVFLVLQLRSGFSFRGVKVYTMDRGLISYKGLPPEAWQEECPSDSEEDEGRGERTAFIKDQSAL
# assayName: furin cleavage Z-score vs untreated control; higher = more cleavage, active = 3.5 or more, inactive = 1 or less, 8 variable residues between constant flanks
# conditionSummary: 30 min
The list shows a part of the results. The hit rate among all sequences tested is not known here.
Quick list: furin cleavage Z-score per entry.
// return a plain number; no unit text

The cases that follow already have their furin cleavage Z-score on record.
> print(dat)
                  sequencecode  testvalue
1  CAEINRPRRIAGNASASA [FS-156]      0.217
2   CAGKAIPLEVAGNASASA [HC849]     -0.983
3   CAVIIKLGALAGNASASA [HC629]      0.349

Query :: Could you tell me which furin cleavage Z-score is on file for CAVGSKQRRIAGNASASA [FS-631] ?
Result :: -0.419

Query :: Could you tell me which furin cleavage Z-score is on file for CASLVRNRRIAGNASASA [FS-626] ?
Result :: 7.84

Query :: Could you tell me which furin cleavage Z-score is on file for CATLGRHRRIAGNASASA [FS-305] ?
Result :: 4.61

Query :: Could you tell me which furin cleavage Z-score is on file for CAVVCCFMSYAGNASASA [HC106] ?
Result :: -1.5
